Measured protein stability index accompanies every entry in the list below.
B1: CD69 (parent)
chain: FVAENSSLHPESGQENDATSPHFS

- Variants of: B1
- Method Notes: protein stability index of a GFP-peptide fusion (GPS, HEK-293T) (PSI 1-6); higher = more stable;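 note: lentivirally expressed fusions sorted by FACS into six bins by GFP to DsRed ratio, PSI derived from sequencing read proportions per bin multiplied by bin number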
- Assay Conditions: c terminus: a fixed tail appended
Could you respond with only the numeric value?

Reference set (5 entries):
- Variant Description: "H9E"
  protein stability index: 4.49
- Variant Description: "E4M"
  protein stability index: 2.1
- Variant Description: "Q14P"
  protein stability index: 2.66
- Variant Description: "E4N"
  protein stability index: 2.87
- Variant Description: "V2R"
  protein stability index: 5.36

What measured protein stability index goes with T19W ?
2.75

Need protein stability index of F1G , thanks.
5.41

Recorded protein stability index for E11S , please?
2.52

Looking for the measured protein stability index of S24Y , can you help?
2.38

Consider the variant F1S and give its measured protein stability index.
5.4

For the variant shown here, H22I , give the reported protein stability index.
2.45

Query (variant): E15D ; field requested: protein stability index
3.06

Please look up its protein stability index: P10A
3.06

Report protein stability index for S7C please.
2.46

Requested read-out: protein stability index. Entry: H22G
3.33

Quick one: protein stability index of V2K ?
5.4

Find the recorded protein stability index belonging to A3E and report it.
3.57

Tell me the measured protein stability index of N5V , please.
2.96

Form field: reported protein stability index of S6T
3.34

Fill in: protein stability index of A3F is ___
3.02

Item under review: L8S . Reported protein stability index?
3.75

Dear colleague, I am looking for the recorded protein stability index of the following variant: G13H
2.46

Origin of values: the supplement of paper PMC10567573
